Hey, just so you know, these numbers are from the supplement of paper PMC9694430.

# Tested on: LOC_OS01G21960-cb002;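 also: purified Escherichia coli-expressed rice kinase domain construct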
# ASSAY REMARKS: thermal shift delta Tm vs DMSO control; higher = stronger stabilization (binding)
# DETAILS: 12.5 µM; protein concentration 2 µM
READOUT KIND: thermal shift delta Tm (°C)
Report only the number, with the unit °C understood.

CC(C)c1cnn2c(NCc3ccccc3-n3cccn3)nc(OC3CCCNC3)nc12 (centres undefined) | 1.47
CCc1cc(Nc2nccc(-c3c(-c4ccc(OC)c(C(=O)Nc5c(F)cccc5F)c4)nc4ccccn34)n2)c(OC)cc1N1CCC(N2CCN(S(C)(=O)=O)CC2)CC1 | 1.05
Cn1cc(-c2cnn3c(N)c(Br)c([C@@H]4CCCNC4)nc23)cn1 | 1.25

The record that follows has no thermal shift delta Tm shown yet.
Reported thermal shift delta Tm of `C=CC(=O)N1CCC[C@@H](n2nc(-c3ccc(Oc4ccccc4)cc3)c3c(N)ncnc32)C1` : 0.24
